B1: H2-Kb / Ed46 (parent complex)
chain 1: AQSVTQPDARVTVSEGASLQLRCKYSYFGTPYLFWYVQYPRQGLQLLLKYYPGDPVVQGVNGFEAEFSKSNSSFHLRKASVHWSDWAVYFCAVGRTGGYKVVFGSGTRLLVSP
chain 2: DSGVVQSPRHIIKEKGGRSVLTCIPISGHSNVVWYQQTLGKELKFLIQHYEKVERDKGFLPSRFSVQQFDDYHSEMNMSALELEDSAMYFCASSPRHSDYTFGSGTRLLVI
chain 3: not shown
chain 4: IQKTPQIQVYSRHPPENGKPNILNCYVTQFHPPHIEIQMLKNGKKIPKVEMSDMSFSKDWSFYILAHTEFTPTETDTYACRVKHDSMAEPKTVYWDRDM
chain 5: SIINFEKL

Variants of: B1
Assay: % of reporter cells activated (NFAT-GFP), raw; note: test concentration or dose not given here
endpoint name: ratio to parent

Solved cases below.
mutant code	ratio to parent
chain 5 I3H	0.998
chain 5 L8T	1.01
chain 5 E6K	0.746
chain 5 E6C	0.0448

(P) chain 5 S1P
(Q) chain 5 F5Y
(R) chain 5 N4V
Please rank these variants by ratio to parent in descending order. Give the labels in the order requested.
Q, P, R
(Q: 1.3, P: 0.0427, R: 0.00323)
